# credit: patent US4732970A

Items are presented alongside their recorded response vs control in vivo at 3 mg/kg.
Test system: lymphocytic leukemia P388
Test details: Lymphocytic Leukemia P388 Test
Assay type: in vivo, BDF1 mice
Experimental context: Mus musculus, P388, ip, read-out: T/C × 100 (%)
*1 amine or outer side, *2 acyl side, *3 side chain or, on linkers, in order; H or OH if unused. Where a SMILES comes first, the peptide text is derived from it. Bridges are numbered along the chain shown (N, C = ends). Roman numbers before positions name the chains, in order. X1 = O=C1c2c(O)ccc(O)c2C(=O)c2c(NCCN[*:2])ccc(NCCN[*:1])c21
The answer is to be given in %; state only the numeric part.

Example compounds with recorded response vs control in vivo at 3 mg/kg:
# Compound, Unit annotation, response vs control in vivo at 3 mg/kg
records = [
    ("CC(C)C[C@H](NC(=O)CNC(=O)CNC(=O)OCc1ccccc1)C(=O)NCCNc1ccc(NCCNC(=O)[C@H](CC(C)C)NC(=O)CNC(=O)CNC(=O)OCc2ccccc2)c2c1C(=O)c1c(O)ccc(O)c1C2=O [Example 69]", "%", 180),
    ("Br.Br.C[C@H](NC(=O)[C@@H]1CCCN1C(=O)CNC(=O)CNC(=O)[C@@H]1CCCN1C(=O)CN)C(=O)NCCNc1ccc(NCCNC(=O)[C@H](C)NC(=O)[C@@H]2CCCN2C(=O)CNC(=O)CNC(=O)[C@@H]2CCCN2C(=O)CN)c2c1C(=O)c1c(O)ccc(O)c1C2=O [Example 64] (I: H-GPGGPA / II: H-GPGGPA; linker I:C-II:C via X1)", "%", 255),
    ("CC(C)C[C@H](NC(=O)[C@H](C)NC(=O)[C@H](C)NC(=O)OC(C)(C)C)C(=O)NCCNc1ccc(NCCNC(=O)[C@H](CC(C)C)NC(=O)[C@H](C)NC(=O)[C@H](C)NC(=O)OC(C)(C)C)c2c1C(=O)c1c(O)ccc(O)c1C2=O [Example 67]", "%", 160),
]

get_value(item= C[C@H](NC(=O)OC(C)(C)C)C(=O)N[C@@H](C)C(=O)N(CCNc1ccc(NCCN(C(=O)[C@H](C)NC(=O)[C@H](C)NC(=O)OC(C)(C)C)[C@@H](C)C(=O)O)c2c1C(=O)c1c(O)ccc(O)c1C2=O)[C@@H](C)C(=O)O [Example 7.] , readout=response vs control in vivo at 3 mg/kg) returns 181

* * *

Test system: lymphocytic leukemia P388
Test details: Lymphocytic Leukemia P388 Test
Format: in vivo, BDF1 mice
Experimental context: dose 0.75 mg/kg intraperitoneally on days 1, 5 and 9; ratio of survival time treated/control
Items are presented alongside their recorded T/C × 100 (%).
The answer is to be given in %; state only the numeric part.

# Compound, Readout number
measured = [
    ("CC(C)C[C@H](NC(=O)[C@H](C)NC(=O)[C@@H](N)CC(=O)OC(C)(C)C)C(=O)NCCNc1ccc(NCCNC(=O)[C@H](CC(C)C)NC(=O)[C@H](C)NC(=O)[C@@H](N)CC(=O)OC(C)(C)C)c2c1C(=O)c1c(O)ccc(O)c1C2=O", 191),
    ("CC(NC(=O)C(N)CC(=O)OC(C)(C)C)C(=O)NC(C)C(=O)NCCNc1ccc(NCCNC(=O)C(C)NC(=O)C(C)NC(=O)C(N)CC(=O)OC(C)(C)C)c2c1C(=O)c1c(O)ccc(O)c1C2=O (stereo not shown)", 173),
    ("Br.Br.C[C@H](NC(=O)OC(C)(C)C)C(=O)N[C@@H](C)C(=O)N[C@@H](CCCNC(=N)N)C(=O)NCCNc1ccc(NCCNC(=O)[C@H](CCCNC(=N)N)NC(=O)[C@H](C)NC(=O)[C@H](C)NC(=O)OC(C)(C)C)c2c1C(=O)c1c(O)ccc(O)c1C2=O", 155),
]

Shifting focus to the compound that follows.
get_value(item= N[C@@H](CO)C(=O)NCCNc1ccc(NCCNC(=O)[C@@H](N)CO)c2c1C(=O)c1c(O)ccc(O)c1C2=O.O=C(O)C(F)(F)F.O=C(O)C(F)(F)F (relative stereo) , readout=T/C × 100 (%)) returns 173
